All figures here come from ChEMBL document CHEMBL4350998.

Test system: Candida albicans
PROCEDURE_SUMMARY: Antifungal activity against Candida albicans ATCC SC5314 assessed as inhibition of visible microbial growth by NCCLS protocol based method
Format: functional
ENDPOINT_LABEL: MIC

chemical_structure=CC[C@H](C)[C@@H](Cn1ccnc1)NC(=O)c1ccc(-c2ccc(F)cc2)cc1F assay_target="Candida albicans" observed_result="0.125 µg/mL"
chemical_structure=CC(C)C[C@@H](Cn1ccnc1)NC(=O)c1ccc(-c2ccccc2)cc1 assay_target="Candida albicans" observed_result="< 0.03 µg/mL"
chemical_structure=CC[C@H](C)[C@@H](Cn1ccnc1)NC(=O)c1ccc(-c2ccccc2F)cc1F assay_target="Candida albicans" observed_result="< 0.03 µg/mL"
chemical_structure=CC(C)[C@@H](Cn1ccnc1)NC(=O)c1ccc(-c2cccc(F)c2)cc1 assay_target="Candida albicans" observed_result="< 0.03 µg/mL"

Now consider a different molecule.
Request: Would you mind telling me what MIC value was observed for `CC(C)[C@H](Cn1ccnc1)NC(=O)c1ccc(-c2ccccc2)cc1` ?
Result: > 16 µg/mL
